- Tested on: human endothelial cells, TNFa-induced E-selectin, imaging
- assayComment: E-selectin induction blockers, endothelial cells – imaging, retest plus dose response, cell count, confirmation (AID 1288)
Activity calls are given as the source filed them. The rule behind the calls is not given here.
Result category, one only: active, inactive

Please review the entries below; each comes with its answer.
O=S(=O)(C/C(=C/CO)S(=O)(=O)c1ccccc1)c1ccccc1
inactive
Cc1nc2scc(-c3ccccc3)c2c(=O)n1N=C1C=CC(=O)C=C1
inactive
O=C(OCn1ncc(Cl)c(Cl)c1=O)c1ccc(F)cc1
inactive
CC1C/C(=C/c2ccncc2)C(=O)/C(=C/c2ccncc2)C1 (configuration not stated)
active
CN1C(=O)/C(=C/c2cccn2-c2ccc3ccccc3c2)C(=O)NC1=S
active

Prompt: What call does the record list for CCc1ccc(N2C(=O)NC(=O)/C(=C/c3cccn3CCOc3ccc(C(C)CC)cc3)C2=O)cc1 (configuration not stated) ?
Completion: active

Prompt: What call does the record list for O=C(NCCC1=CCCCC1)c1coc(=O)c(Br)c1 ?
Completion: active

Prompt: What call does the record list for O=C(OCn1ncc(Br)c(Br)c1=O)c1ccc(F)cc1 ?
Completion: inactive

Prompt: What call does the record list for CCc1c(C)c(C#N)c2nc3ccccc3n2c1Cl ?
Completion: active

Prompt: What call does the record list for N#CC(C#N)=C1C=CC=CN1/C(=C\c1ccccc1Cl)C(=O)c1ccccc1 ?
Completion: active

Prompt: What call does the record list for CCOc1cc(C(=O)NCc2ccc(-c3nc4ccccc4o3)cc2)cc(OCC)c1OCC ?
Completion: active

Prompt: What call does the record list for Cc1cc2cc(C=C(C#N)C#N)c(Cl)nc2cc1C ?
Completion: active

Prompt: What call does the record list for O=C(Nc1ccccc1)c1nnsc1S(=O)c1ccc(Cl)cc1 (configuration not stated) ?
Completion: active

Prompt: What call does the record list for O=S(=O)(/C(=C/c1ccc(C(F)(F)F)cc1)c1nc2ccccc2[nH]1)c1ccccc1 ?
Completion: inactive

Prompt: What call does the record list for COc1cccc(-n2nc(C#N)c(Cl)cc2=O)c1 ?
Completion: inactive

The values you see were collected from PubChem BioAssay AID1288.
